Tested on: Escherichia coli
Assay: MBC in cation-adjusted Muller Hinton culture
Type: cell-based
Endpoint name: MBC

CCCCCCNC(=O)CCc1ccc2c(c1)CNCCCCNCc1cc(CCC(=O)NCCCCCC)ccc1OCCCCO2
15 µM
CCCCCCNC(=O)CCc1ccc2c(c1)CNCCCNCc1cc(CCC(=O)NCCCCCC)ccc1OCCCCCO2
9 µM
CCCCCCNC(=O)CCc1ccc2c(c1)CNCCCNCc1cc(CCC(=O)NCCCCCC)ccc1OCCCCO2
14 µM
CCCCCCNC(=O)Cc1ccc2c(c1)CNCCCCNCc1cc(CC(=O)NCCCCCC)ccc1OCCCCO2
7.5 µM

* * *

Tested on: MRSA
Experiment: MBC in cation-adjusted Muller Hinton culture
Assay type: cell-based, Methicillin-resistant S. aureus
Endpoint name: MBC (µM)

CCCCCCNC(=O)CCc1ccc2c(c1)CNCCCNCc1cc(CCC(=O)NCCCCCC)ccc1OCCCCO2 [Liptin 1i]
11.5
CCCCCCNC(=O)Cc1ccc2c(c1)CNCCCCNCc1cc(CC(=O)NCCCCCC)ccc1OCCCCO2 [Liptin 1k]
11.5
CCCCCCNC(=O)CCc1ccc2c(c1)CNCCCCNCc1cc(CCC(=O)NCCCCCC)ccc1OCCCCO2 [Liptin 1j]
15
CCCCCCNC(=O)CCc1ccc2c(c1)CNCCCNCc1cc(CCC(=O)NCCCCCC)ccc1OCCCCCO2 [Liptin 1h]
10
